Where do the numbers come from? From the supplement of paper PMC6897291.

system: RIVA; test: growth inhibition by drug plus 177Lu-lilotomab satetraxetan (1 - RLU/untreated control) (fraction); higher = stronger inhibition; settings: 10 nM; time (day): 3; 177Lu-lilotomab satetraxetan 0.5 ug/ml
Documented growth inhibition by drug plus 177Lu-lilotomab satetraxetan across a set of compounds
Could you respond with only the numeric value?

Would you mind telling me what growth inhibition by drug plus 177Lu-lilotomab satetraxetan value was observed for N[C@@H](Cc1ccc(N(CCCl)CCCl)cc1)C(=O)O ?
0.357

Would you mind telling me what growth inhibition by drug plus 177Lu-lilotomab satetraxetan value was observed for CC1=C2C[C@H]3[C@@H](CC=C4C[C@@H](O)CC[C@@]43C)[C@@H]2CC[C@]12O[C@@H]1C[C@H](C)CN[C@H]1[C@H]2C ?
0.301

Would you mind telling me what growth inhibition by drug plus 177Lu-lilotomab satetraxetan value was observed for CC[C@@H](C(=O)[C@@H](C)[C@@H](O)[C@H](C)[C@@H]1O[C@@H]([C@@H](CC)C(=O)O)CC[C@@H]1C)[C@H]1O[C@]2(C=C[C@@H](O)[C@]3(CC[C@@](C)([C@H]4CC[C@](O)(CC)[C@H](C)O4)O3)O2)[C@H](C)C[C@@H]1C ?
0.491

Would you mind telling me what growth inhibition by drug plus 177Lu-lilotomab satetraxetan value was observed for O=P1(N(CCCl)CCCl)NCCCO1 (stereo unspecified) [Cyclophosphamide monohydrate] ?
0.338

Would you mind telling me what growth inhibition by drug plus 177Lu-lilotomab satetraxetan value was observed for N.N.[Cl][Pt][Cl] [Cisplatin] ?
0.539

Would you mind telling me what growth inhibition by drug plus 177Lu-lilotomab satetraxetan value was observed for C[C@]12CCC(=O)C(O)=C1CC[C@@H]1[C@@H]2CC[C@]2(C)C(=O)CC[C@@H]12 ?
0.476
